Reported Inhibition of PAD4: value at 10 µM inhibitor (0 µM: 71) values are given for each entry in this list.
molecular target: recombinant human PAD4 (human, UniProt Q9UM07 1-663); assay: cell-based or functional assay
Sequence (Q9UM07 whole entry): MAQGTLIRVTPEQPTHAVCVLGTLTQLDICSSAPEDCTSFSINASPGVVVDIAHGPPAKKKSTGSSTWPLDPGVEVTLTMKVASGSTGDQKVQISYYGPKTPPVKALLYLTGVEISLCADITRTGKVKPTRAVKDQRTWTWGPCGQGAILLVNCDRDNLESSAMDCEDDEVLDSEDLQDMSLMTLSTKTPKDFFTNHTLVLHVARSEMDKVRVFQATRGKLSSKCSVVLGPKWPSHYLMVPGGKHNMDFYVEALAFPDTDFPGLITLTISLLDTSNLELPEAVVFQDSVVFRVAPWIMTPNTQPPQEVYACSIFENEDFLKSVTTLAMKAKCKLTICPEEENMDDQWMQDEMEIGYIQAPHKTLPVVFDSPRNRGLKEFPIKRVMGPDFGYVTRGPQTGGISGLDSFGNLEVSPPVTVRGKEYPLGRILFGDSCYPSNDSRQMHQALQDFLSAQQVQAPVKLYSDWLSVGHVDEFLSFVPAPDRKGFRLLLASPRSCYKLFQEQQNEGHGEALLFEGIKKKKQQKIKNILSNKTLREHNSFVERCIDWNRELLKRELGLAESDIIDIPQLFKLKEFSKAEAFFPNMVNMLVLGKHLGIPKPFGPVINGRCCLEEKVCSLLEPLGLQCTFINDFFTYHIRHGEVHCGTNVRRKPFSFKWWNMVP
Square brackets hold non-standard residues; d marks the D form. * marks the point of attachment. Orn(fluoroacetimidoyl) = N=C(CF)NCCC[C@H](N)C(=O)O; 2Naphthylsulfonyl = O=S(=O)(c1ccc2ccccc2c1)*; AEEA = NCCOCCOCC(=O)O

A selection of reference data follows.
2Naphthylsulfonyl-KFD[Orn(fluoroacetimidoyl)]DFI-NH2 [0837-29FA]; 33%
Ac-KFD[Orn(fluoroacetimidoyl)]DFI[AEEA]-NH2 (SMILES CC[C@H](C)[C@H](NC(=O)[C@H](Cc1ccccc1)NC(=O)[C@H](CC(=O)O)NC(=O)[C@H](CCCNC(=N)CF)NC(=O)[C@H](CC(=O)O)NC(=O)[C@H](Cc1ccccc1)NC(=O)[C@H](CCCCN)NC(C)=O)C(=O)NCCOCCOCC(N)=O) [0837-13FA]; 48%
Ac-KFD[Orn(fluoroacetimidoyl)]DFI-NH2 (SMILES CC[C@H](C)[C@H](NC(=O)[C@H](Cc1ccccc1)NC(=O)[C@H](CC(=O)O)NC(=O)[C@H](CCCNC(=N)CF)NC(=O)[C@H](CC(=O)O)NC(=O)[C@H](Cc1ccccc1)NC(=O)[C@H](CCCCN)NC(C)=O)C(N)=O) [0743-58FA]; 46%

Please turn your attention to the following entry.
Prompt line: Entry 2Naphthylsulfonyl-KFD[Orn(fluoroacetimidoyl)]DFI[AEEA]-NH2 (SMILES CC[C@H](C)[C@H](NC(=O)[C@H](Cc1ccccc1)NC(=O)[C@H](CC(=O)O)NC(=O)[C@H](CCCNC(=N)CF)NC(=O)[C@H](CC(=O)O)NC(=O)[C@H](Cc1ccccc1)NC(=O)[C@H](CCCCN)NS(=O)(=O)c1ccc2ccccc2c1)C(=O)NCCOCCOCC(N)=O) [0837-27FA] has what Inhibition of PAD4: value at 10 µM inhibitor (0 µM: 71)?
Response line: 35%
